# measured.on: gB AD-2S1 peptide (human cytomegalovirus)
# protocol.description: SPR
# experimental.setup: both partners purified
Measured kon of individual entries
Kindly provide the numeric value in M⁻¹ s⁻¹ only, without the unit symbol.

binder	reported.measurement
MAB318 (antibody, V domains shown) VH: QVQLVQSGGGVVQPGTSLRLSCAASGFMFNTYNMHWVRQAPGKGLEWVAVISNDGTYKHFADSLKGRFSISRDDSKNTLYLHMNSLRPDDTAIYYCARDGRSVGGFSGILDPWGQGTLVTVSS VL: EVVLTQSPATLSLSPGDRATLSCRASQTVGRYLAWYQQKPGQAPRLLIYDASDRATGISARFSGSGSGTDFTLTIGSLEPEDFAVYYCQQRSSWPPLTFGGGTKVEIK	1.33e+08
MAB338 (antibody, V domains shown) VH: QVQLVESGGGVVQPGRSLRLSCSGSGFTFSDYNLHWVRQAPGKGLEWVAVISIDGTNKHHADSVKGRFTISRDNSKNTVNLEMSRLKAEDTAVYYCVRDGRSIGGYSGIFDPWGQGTLVTVSS VL: EIVLTQSPATLSLSPGERATLSCRASQSVDRYLAWYQQKPGQAPRLLIYDASQRATGIPARFSGSGSGTDFTLAISSLEPEDVAVYYCQQRSNWPPLTFGGGTKIEIK	1.36e+08

QUERY: Fill in reported kon for this entry: I4 (antibody, V domains shown, also called intermediate 4) VH: QVQLVESGGGVVQPGRSLRLSCAASGFTFNTYNMHWVRQAPGKGLEWVAVISNDGTYKYSADSVKGRFSISRDNSKNTLYLQMNSLRPDDTAVYYCARDGRSVGGFSGILDPWGQGTLVTVSS VL: EIVLTQSPATLSLSPGDRATLSCRASQSVGSYLAWYQQKPGQAPRLLIYDASDRATGIPARFSGSGSGTDFTLTISSLEPEDFAVYYCQQRSNWPPLTFGGGTKVEIK
RESULT: 1.3e+08
